Target: T1, rhIL-1RAcP/Fc Chimera (human, UniProt Q9NPH3 21-359)
T1 construct: also called P013_03; P013-03
T1 sequence (looked up): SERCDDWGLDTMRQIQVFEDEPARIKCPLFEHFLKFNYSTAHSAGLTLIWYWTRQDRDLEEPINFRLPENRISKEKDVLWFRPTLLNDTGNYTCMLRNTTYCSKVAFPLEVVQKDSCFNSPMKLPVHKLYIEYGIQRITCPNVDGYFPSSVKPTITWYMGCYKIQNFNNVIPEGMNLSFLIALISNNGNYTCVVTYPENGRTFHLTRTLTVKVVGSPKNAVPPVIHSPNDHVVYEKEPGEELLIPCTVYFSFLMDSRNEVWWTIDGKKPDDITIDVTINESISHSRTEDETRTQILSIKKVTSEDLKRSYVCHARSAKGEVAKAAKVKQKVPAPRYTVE
Assay: ELISA, recombinant purified mAb
parameter: EC50 (µg/mL)
Value expressed in µg/mL; do not type the unit.

>  <binder>
P013.S.02.B.D01 (antibody, V domains shown, rabbit monoclonal antibody; also called P013.A.00141.G02) VH: LEQSGGGAEGGLVKPGGSLELCCKASGFSLSSNYWMCWVRQAPGKGLEWIGCIYAGSSDSTYYASWVNGRFTLSRDIDQSTGCLQLNSLTAADTAMYYCASPGYGGYGYYGLWGQGTLVTVSS VL: ALVMTQTPSPVSAAVGGTVTINCQASEDIYSNLAWFQQKPGQPPKLLIYDASTLASGVPSRFSGSGSGTEFTLTISGLQSDDAATYYCLGVYTYISPDGTDNAFGGGTEVVVK

>  <EC50 (µg/mL)>
0.555

$$$$

Q: Would you kindly share the measured EC50 for P013.S.02.B.E01 (antibody, V domains shown, rabbit monoclonal antibody; also called P013.A.00013.G07) VH: QSLEESGGRLVTPGTPLTLTCTVSGFSLSIYGMGWVRQAPGEGLEWIGSISSGGSTYYATWAKGRFTISKTSSTTLDLKITSPTTEDTATYFCVRSDGYTNGDYDTYFNLWGQGTLVTVS VL: DIVMTQTPASVSEPVGGTVTIRCQASQSISSWLSWYQQKPGQPPKLLIYQASALASGVSSRFIGSGYGTEFTLTISGVQSEDAATYYCQCTYGIGSNSDYGVAFGGGTEVVVK ?
A: 0.137

Q: Would you kindly share the measured EC50 for P013.S.01.B.G04 (antibody, V domains shown, rabbit monoclonal antibody; also called P013.A.00013.G06) VH: QSVEESGGRLVTPGTPLTLTCTVSGFSLSVYAMGWFRQAPGKGLEWIGDIYIASDGTWYANWAKGRFTISKTSTTVDLKITSPTTEDTATYFCAREIDAGYVGYGFNLWGQGTLVTVSS VL: AQALTQTPSPVSAAVGGTVTINCQSSQSVYSDYLGWYQQKPGQPPKLLIYWASKLETGVPSRFKGSGSGTQFTLTISGVQSDDAATYYCQATYYGSGWYRAFGGGTEVVVK ?
A: 0.255
